src = ChEMBL document CHEMBL1142886

Record type: Ki measurement. Applies to: Homoisocitrate dehydrogenase, mitochondrial (Saccharomyces cerevisiae S288c)
OUTCOME_MEASURE: Ki (µM)

a. O=C(O)CC/C=C(\C(=O)O)[C@@H](O)C(=O)O
b. O=C(O)/C(=C\CCO)[C@@H](O)C(=O)O
c. O=C(O)/C(=C/CCO)[C@@H](O)C(=O)O
d. O=C(O)CC/C=C(/C(=O)O)[C@@H](O)C(=O)O
Put the above compounds in order of rising Ki, beginning with the smallest. Rank the items, then write their labels in that order.
a, b, d, c
(a: 72 µM, b: 510 µM, d: 790 µM, c: 1400 µM)
